target: UniProtKB G3FT00
MEASURED ATTRIBUTE: Kd (µM)
Just the number please, in µM, no unit attached.

Lookup: Hi! What's the reported Kd for Nc1nc2c(ncn2[C@@H]2O[C@@H]3CO[P@](=O)(O)O[C@H]4[C@@H](O)[C@H](n5cnc6c(=O)[nH]c(N)nc65)O[C@@H]4CO[P@](=O)(O)O[C@H]3[C@H]2O)c(=O)[nH]1 [c-di-GMP] on UniProtKB G3FT00?
Found: 0.45

---

biological target: MrkH (Klebsiella pneumoniae, UniProt G3FT00); construct: full-length MrkH, YcgR-N plus PilZ domains; monomer; recombinant; test: ITC
Sequence (G3FT00 entry or part of it): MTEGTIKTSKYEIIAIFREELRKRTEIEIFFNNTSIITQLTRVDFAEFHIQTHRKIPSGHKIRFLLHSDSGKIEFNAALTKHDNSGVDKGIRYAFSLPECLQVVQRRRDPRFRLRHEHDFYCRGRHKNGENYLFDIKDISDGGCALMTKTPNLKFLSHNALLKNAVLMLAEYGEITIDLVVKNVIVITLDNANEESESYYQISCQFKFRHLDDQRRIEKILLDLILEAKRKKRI
pKd: −log10 of the molar value.
MEASURED ATTRIBUTE: pKd

Lookup: pKd for Nc1nc2c(ncn2[C@@H]2O[C@@H]3CO[P@](=O)(O)O[C@H]4[C@@H](O)[C@H](n5cnc6c(=O)[nH]c(N)nc65)O[C@@H]4CO[P@](=O)(O)O[C@H]3[C@H]2O)c(=O)[nH]1 ?
Found: ~6.62
